# Measured on: Retinoic acid receptor alpha (Homo sapiens, UniProt P10276)
# Sequence (P10276 whole entry): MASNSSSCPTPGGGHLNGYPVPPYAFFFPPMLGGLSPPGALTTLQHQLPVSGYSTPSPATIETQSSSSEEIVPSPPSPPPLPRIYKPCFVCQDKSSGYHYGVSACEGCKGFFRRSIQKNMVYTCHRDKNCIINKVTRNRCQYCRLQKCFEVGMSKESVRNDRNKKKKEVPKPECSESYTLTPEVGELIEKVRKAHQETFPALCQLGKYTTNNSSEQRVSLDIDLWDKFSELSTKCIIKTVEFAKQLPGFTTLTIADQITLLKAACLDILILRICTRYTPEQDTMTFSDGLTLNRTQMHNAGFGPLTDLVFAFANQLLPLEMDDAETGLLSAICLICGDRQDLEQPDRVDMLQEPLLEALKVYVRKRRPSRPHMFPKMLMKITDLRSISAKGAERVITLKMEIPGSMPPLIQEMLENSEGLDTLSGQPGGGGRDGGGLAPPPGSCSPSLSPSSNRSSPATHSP
# Assay info: Binding affinity for Retinoic acid receptor alpha
pKd: −log10 of the molar value.
Property measured: pKd

query_smiles=CC1(C)CCNc2ccc(C#Cc3ccc(C(=O)O)cc3)cc21 measured_on="Retinoic acid receptor alpha (Homo sapiens, UniProt P10276)" value_prefix== val=5.28
query_smiles=CC(C)N1C(=O)CC(C)(C)c2ccc(C#Cc3ccc(C(=O)O)cc3)cc21 measured_on="Retinoic acid receptor alpha (Homo sapiens, UniProt P10276)" value_prefix== val=7.24
query_smiles=CCCCCCCN1CCC(C)(C)c2cc(C#Cc3ccc(C(=O)O)cc3)ccc21 measured_on="Retinoic acid receptor alpha (Homo sapiens, UniProt P10276)" value_prefix=< val=6.00
query_smiles=CC(C)N1CCC(C)(C)c2ccc(C#Cc3ccc(C(=O)O)cc3)cc21 measured_on="Retinoic acid receptor alpha (Homo sapiens, UniProt P10276)" value_prefix== val=7.28
query_smiles=CC1(C)CC(=O)Nc2ccc(C#Cc3ccc(C(=O)O)cc3)cc21 measured_on="Retinoic acid receptor alpha (Homo sapiens, UniProt P10276)" value_prefix=< val=6.00
query_smiles=CC(C)N1CCC(C)(C)c2cc(C#Cc3ccc(C(=O)O)cc3)ccc21 measured_on="Retinoic acid receptor alpha (Homo sapiens, UniProt P10276)" value_prefix== val=6.20
query_smiles=CC(C)N1C(=O)CC(C)(C)c2cc(C#Cc3ccc(C(=O)O)cc3)ccc21 measured_on="Retinoic acid receptor alpha (Homo sapiens, UniProt P10276)" value_prefix== val=6.87
query_smiles=CC1(C)CC(=O)Nc2cc(C#Cc3ccc(C(=O)O)cc3)ccc21 measured_on="Retinoic acid receptor alpha (Homo sapiens, UniProt P10276)" value_prefix=< val=6.00

* * *

# Measured on: Retinoic acid receptor alpha (Homo sapiens, UniProt P10276)
# Assay info: Transactivation potency for Retinoic acid receptor alpha
pEC50: −log10 of the molar value.
Property measured: pEC50

query_smiles=CC1(C)CCNc2ccc(C#Cc3ccc(C(=O)O)cc3)cc21 property_measured=pEC50 val=5.64

* * *

# Measured on: Retinoic acid receptor alpha (Homo sapiens, UniProt P10276)
# Assay info: Transactivation potency for Retinoic acid receptor alpha; Not active
Property measured: EC50

query_smiles=CCCCCCCN1CCC(C)(C)c2cc(C#Cc3ccc(C(=O)O)cc3)ccc21 property_measured=EC50 val="Not Active"
query_smiles=CC(C)N1CCC(C)(C)c2cc(C#Cc3ccc(C(=O)O)cc3)ccc21 property_measured=EC50 val="Not Active"
query_smiles=CC1(C)CC(=O)Nc2ccc(C#Cc3ccc(C(=O)O)cc3)cc21 property_measured=EC50 val="Not Active"
query_smiles=CC(C)N1C(=O)CC(C)(C)c2cc(C#Cc3ccc(C(=O)O)cc3)ccc21 property_measured=EC50 val="Not Active"
query_smiles=CC1(C)CCNc2cc(C#Cc3ccc(C(=O)O)cc3)ccc21 property_measured=EC50 val="Not Active"
query_smiles=CC(C)N1C(=O)CC(C)(C)c2ccc(C#Cc3ccc(C(=O)O)cc3)cc21 property_measured=EC50 val="Not Active"
query_smiles=CC1(C)CC(=O)Nc2cc(C#Cc3ccc(C(=O)O)cc3)ccc21 property_measured=EC50 val="Not Active"

* * *

Parameter 'readout' = pKd; parameter 'system' = Retinoic acid receptor gamma (Homo sapiens, UniProt P13631).
Sequence (P13631 whole entry): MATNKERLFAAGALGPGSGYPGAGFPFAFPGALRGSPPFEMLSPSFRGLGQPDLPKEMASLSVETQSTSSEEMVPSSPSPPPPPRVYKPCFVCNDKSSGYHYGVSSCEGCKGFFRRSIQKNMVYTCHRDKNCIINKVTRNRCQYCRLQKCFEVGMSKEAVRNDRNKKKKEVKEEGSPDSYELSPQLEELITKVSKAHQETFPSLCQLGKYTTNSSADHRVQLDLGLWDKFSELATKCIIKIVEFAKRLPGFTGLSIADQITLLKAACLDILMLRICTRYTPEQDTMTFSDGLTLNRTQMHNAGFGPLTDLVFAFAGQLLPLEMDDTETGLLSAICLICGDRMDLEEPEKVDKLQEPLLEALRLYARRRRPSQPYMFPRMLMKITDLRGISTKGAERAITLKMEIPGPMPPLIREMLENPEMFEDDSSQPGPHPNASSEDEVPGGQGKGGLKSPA
pKd: −log10 of the molar value.
Property measured: pKd

query_smiles=CC(C)N1C(=O)CC(C)(C)c2cc(C#Cc3ccc(C(=O)O)cc3)ccc21 measured_on="Retinoic acid receptor gamma (Homo sapiens, UniProt P13631)" value_prefix== val=7.77
query_smiles=CCCCCCCN1CCC(C)(C)c2cc(C#Cc3ccc(C(=O)O)cc3)ccc21 measured_on="Retinoic acid receptor gamma (Homo sapiens, UniProt P13631)" value_prefix=< val=6.00
query_smiles=CC1(C)CC(=O)Nc2cc(C#Cc3ccc(C(=O)O)cc3)ccc21 measured_on="Retinoic acid receptor gamma (Homo sapiens, UniProt P13631)" value_prefix=< val=6.00
query_smiles=CC(C)N1C(=O)CC(C)(C)c2ccc(C#Cc3ccc(C(=O)O)cc3)cc21 measured_on="Retinoic acid receptor gamma (Homo sapiens, UniProt P13631)" value_prefix== val=7.64

* * *

# Measured on: Ornithine decarboxylase (Mus musculus) (UniProt P00860)
# Sequence (whole entry): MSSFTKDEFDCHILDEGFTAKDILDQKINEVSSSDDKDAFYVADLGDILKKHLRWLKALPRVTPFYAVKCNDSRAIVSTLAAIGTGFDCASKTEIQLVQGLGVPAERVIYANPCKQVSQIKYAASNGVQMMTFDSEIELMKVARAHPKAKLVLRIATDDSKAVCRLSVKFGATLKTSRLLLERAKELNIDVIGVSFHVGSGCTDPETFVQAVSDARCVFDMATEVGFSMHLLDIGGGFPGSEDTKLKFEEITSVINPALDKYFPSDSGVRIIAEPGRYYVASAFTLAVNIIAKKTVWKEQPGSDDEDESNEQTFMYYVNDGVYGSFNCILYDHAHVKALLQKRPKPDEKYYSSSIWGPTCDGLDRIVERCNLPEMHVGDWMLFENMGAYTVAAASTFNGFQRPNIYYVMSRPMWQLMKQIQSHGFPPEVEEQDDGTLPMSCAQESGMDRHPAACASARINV
# Assay info: Inhibition of ornithine decarboxylase activity in hairless mouse skin in vivo
# Type: organism-based
Catalogue of log10 IC60 readings, one per entry.
Property measured: log10 IC60 (log10 of the value in nM)

query_smiles=CCOC(=O)c1ccc(C#Cc2ccc3c(c2)N(C(C)C)C(=O)CC3(C)C)cc1 measured_on="Ornithine decarboxylase (Mus musculus) (UniProt P00860)" val=0.46
query_smiles=CCOC(=O)c1ccc(C#Cc2ccc3c(c2)C(C)(C)CCN3C(C)C)cc1 measured_on="Ornithine decarboxylase (Mus musculus) (UniProt P00860)" val=-0.40
query_smiles=CC1=C(/C=C/C(C)=C/C=C/C(C)=C/C(=O)O)C(C)(C)CCC1 measured_on="Ornithine decarboxylase (Mus musculus) (UniProt P00860)" val=0.15
query_smiles=CCOC(=O)c1ccc(C#Cc2ccc3c(c2)C(C)(C)CCN3)cc1 measured_on="Ornithine decarboxylase (Mus musculus) (UniProt P00860)" val=0.70
query_smiles=CCOC(=O)c1ccc(/C=C(\C)c2ccc3c(c2)C(C)(C)CCC3(C)C)cc1 measured_on="Ornithine decarboxylase (Mus musculus) (UniProt P00860)" val=-0.48
query_smiles=CCOC(=O)c1ccc(C#Cc2ccc3c(c2)NCCC3(C)C)cc1 measured_on="Ornithine decarboxylase (Mus musculus) (UniProt P00860)" val=0.85
query_smiles=CCOC(=O)c1ccc(C#Cc2ccc3c(c2)C(C)(C)CC(=O)N3C(C)C)cc1 measured_on="Ornithine decarboxylase (Mus musculus) (UniProt P00860)" val=0.78

* * *

// values below are reported EC50
# Measured on: Retinoic acid receptor gamma (Homo sapiens)
# Assay info: Transactivation potency for Retinoic acid receptor gamma
Property measured: EC50

query_smiles=CC1(C)CCNc2ccc(C#Cc3ccc(C(=O)O)cc3)cc21 val="130 nM"
query_smiles=CC(C)N1CCC(C)(C)c2cc(C#Cc3ccc(C(=O)O)cc3)ccc21 val="6 nM"
query_smiles=CC(C)N1C(=O)CC(C)(C)c2cc(C#Cc3ccc(C(=O)O)cc3)ccc21 val="4 nM"
query_smiles=CCCCCCCN1CCC(C)(C)c2cc(C#Cc3ccc(C(=O)O)cc3)ccc21 val="260 nM"
query_smiles=CC(C)N1CCC(C)(C)c2ccc(C#Cc3ccc(C(=O)O)cc3)cc21 val="3 nM"

* * *

Entries annotated with measured IC60
# Measured on: Ornithine decarboxylase (Mus musculus) (UniProt P00860)
# Assay info: Inhibition of ornithine decarboxylase activity in hairless mouse skin in vivo
# Format: organism-based
Property measured: IC60

query_smiles=CCOC(=O)c1ccc(C#Cc2ccc3c(c2)C(C)(C)CC(=O)N3)cc1 property_measured=IC60 val="> 300 nM"
query_smiles=CCOC(=O)c1ccc(C#Cc2ccc3c(c2)NC(=O)CC3(C)C)cc1 property_measured=IC60 val="> 300 nM"
query_smiles=CCCCCCCN1CCC(C)(C)c2cc(C#Cc3ccc(C(=O)OCC)cc3)ccc21 property_measured=IC60 val="> 300 nM"
query_smiles=CCOC(=O)c1ccc(C#Cc2ccc3c(c2)N(C(C)C)CCC3(C)C)cc1 property_measured=IC60 val="< 0.1 nM"
